Molecular target: T1, human GM-CSFRα, full length on cells (human, UniProt P15509 23-400)
T1 sequence: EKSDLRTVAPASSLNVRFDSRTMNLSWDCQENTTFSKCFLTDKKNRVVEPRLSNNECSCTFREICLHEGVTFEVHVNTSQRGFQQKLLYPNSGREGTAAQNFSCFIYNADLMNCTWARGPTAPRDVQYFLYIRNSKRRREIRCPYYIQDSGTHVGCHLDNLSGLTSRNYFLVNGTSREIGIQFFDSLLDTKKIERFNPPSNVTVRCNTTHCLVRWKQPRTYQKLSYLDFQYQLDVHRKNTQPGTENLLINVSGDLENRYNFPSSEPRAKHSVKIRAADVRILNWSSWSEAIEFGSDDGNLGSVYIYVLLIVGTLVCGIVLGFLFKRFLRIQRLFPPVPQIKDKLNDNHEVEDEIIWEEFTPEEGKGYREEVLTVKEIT
Assay: cell-based or functional assay

[
  {
    "binder": "E35-scFv HT28V (scFv, V domains shown) VH: QMQLVQSGAEVKKPGASVKVSCKVSGYVLTELSIHWVRQAPGKGLEWMGGFDPEDGETIYAQKFQGRVTMTGDTSTDTAYLELSSLRSEDTALYYCATGRYTSLATTYGFDYWGQGTLVTVSS VL: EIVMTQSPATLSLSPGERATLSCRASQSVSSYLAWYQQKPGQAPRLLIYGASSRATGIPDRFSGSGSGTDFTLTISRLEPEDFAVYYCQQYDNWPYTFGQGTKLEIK",
    "unit_name": "µg/mL",
    "IC50, TF-1 cell proliferation": 0.08
  },
  {
    "binder": "E35-scFv HE31K (scFv, V domains shown) VH: QMQLVQSGAEVKKPGASVKVSCKVSGYTLTKLSIHWVRQAPGKGLEWMGGFDPEDGETIYAQKFQGRVTMTGDTSTDTAYLELSSLRSEDTALYYCATGRYTSLATTYGFDYWGQGTLVTVSS VL: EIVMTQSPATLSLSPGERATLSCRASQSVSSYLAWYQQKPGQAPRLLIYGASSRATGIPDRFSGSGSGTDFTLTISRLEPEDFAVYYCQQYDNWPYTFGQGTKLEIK",
    "unit_name": "µg/mL",
    "IC50, TF-1 cell proliferation": 0.23
  },
  {
    "binder": "E35-scFv LS28W (scFv, V domains shown) VH: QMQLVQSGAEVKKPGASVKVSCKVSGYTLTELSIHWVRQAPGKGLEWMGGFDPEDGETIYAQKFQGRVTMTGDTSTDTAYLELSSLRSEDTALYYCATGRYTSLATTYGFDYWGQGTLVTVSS VL: EIVMTQSPATLSLSPGERATLSCRASQWVSSYLAWYQQKPGQAPRLLIYGASSRATGIPDRFSGSGSGTDFTLTISRLEPEDFAVYYCQQYDNWPYTFGQGTKLEIK",
    "unit_name": "µg/mL",
    "IC50, TF-1 cell proliferation": 0.06
  }
]
